assay: Microsomal stability, C57 mouse liver microsomes; format: in vitro ADME; details: 0.5 mg/mL protein, NADPH, Phase I, read-out: Microsomal Stability C57 Mouse Phase I t1/2
ASSAY_METRIC: half-life at 1 μM (min)

# annotated cases, reported half-life at 1 μM shown
O=c1[nH]c2sc(CN3CCCCC3)cc2c2c(O)cccc12 [Example 11] : 27
CC(C)NCc1cc2c([nH]c(=O)c3cccc(O)c32)s1 [Example 13] : 28

[P] O=c1[nH]c2sc(CN3CCC(Br)CC3)cc2c2c(O)cccc12 [Example 15]
[Q] Br.CN(C)Cc1cc2c([nH]c(=O)c3cccc(O)c32)s1 [Example 2]
Form field 'greater half-life at 1 μM' accepts P or Q ; which applies? Please indicate the selected item by its label. Q
(Q: 15 min, P: 4 min)

* * *

experiment: Brain (B)-Plasma (P) dialysis; assay type: in vitro ADME; settings: 10 μM, diluted plasma or brain homogenate vs PBS, 37° C., 5 hours; read-out: Brain-Plasma Dialysis B/P Ratio
ASSAY_METRIC: Kp at 5 h, 10 μM

# annotated cases, reported Kp at 5 h, 10 μM shown
O=c1[nH]c2sc(CN3CCCCC3)cc2c2c(O)cccc12 : 1.25
O=c1[nH]c2sc(CN3CCSC3)cc2c2c(O)cccc12 : 0.79
O=c1[nH]c2sc(CN3CCOCC3)cc2c2c(O)cccc12 : 0.81
O=c1[nH]c2sc(CN3CCC(Br)CC3)cc2c2c(O)cccc12 : 1.12

[a] Br.CN(C)Cc1cc2c([nH]c(=O)c3cccc(O)c32)s1 [Example 2, hydrobromide]
[b] CC(C)NCc1cc2c([nH]c(=O)c3cccc(O)c32)s1
[c] O=c1[nH]c2sc(CN3CCCC3)cc2c2c(O)cccc12
Rank descending by Kp at 5 h, 10 μM. // list labels; follow requested order b, c, a
(b: 1.53, c: 1.03, a: 0.05)

* * *

assay: Microsomal stability, human liver microsomes; format: in vitro ADME; details: 0.5 mg/mL protein, NADPH, Phase I, read-out: Microsomal Stability Human Phase I t1/2
ASSAY_METRIC: half-life at 1 μM

# annotated cases, reported half-life at 1 μM shown
Br.CN(C)Cc1cc2c([nH]c(=O)c3cccc(O)c32)s1 : > 30 min
O=c1[nH]c2sc(CN3CCCC3)cc2c2c(O)cccc12 : > 30 min
CC(C)NCc1cc2c([nH]c(=O)c3cccc(O)c32)s1 : > 30 min

Consider now this further molecule.
Determine from records and report half-life at 1 μM for O=c1[nH]c2sc(CN3CCOCC3)cc2c2c(O)cccc12 > 30 min

* * *

target: hrPARP-1 (human recombinant, Trevigen) (Homo sapiens, UniProt P09874); experiment: Functional assessment of human PARP-1 enzymatic activity; details: 1 U hrPARP-1, 15 μg/mL activated DNA, 5 μM NAD+, 20 min room temperature
Sequence (P09874 whole entry): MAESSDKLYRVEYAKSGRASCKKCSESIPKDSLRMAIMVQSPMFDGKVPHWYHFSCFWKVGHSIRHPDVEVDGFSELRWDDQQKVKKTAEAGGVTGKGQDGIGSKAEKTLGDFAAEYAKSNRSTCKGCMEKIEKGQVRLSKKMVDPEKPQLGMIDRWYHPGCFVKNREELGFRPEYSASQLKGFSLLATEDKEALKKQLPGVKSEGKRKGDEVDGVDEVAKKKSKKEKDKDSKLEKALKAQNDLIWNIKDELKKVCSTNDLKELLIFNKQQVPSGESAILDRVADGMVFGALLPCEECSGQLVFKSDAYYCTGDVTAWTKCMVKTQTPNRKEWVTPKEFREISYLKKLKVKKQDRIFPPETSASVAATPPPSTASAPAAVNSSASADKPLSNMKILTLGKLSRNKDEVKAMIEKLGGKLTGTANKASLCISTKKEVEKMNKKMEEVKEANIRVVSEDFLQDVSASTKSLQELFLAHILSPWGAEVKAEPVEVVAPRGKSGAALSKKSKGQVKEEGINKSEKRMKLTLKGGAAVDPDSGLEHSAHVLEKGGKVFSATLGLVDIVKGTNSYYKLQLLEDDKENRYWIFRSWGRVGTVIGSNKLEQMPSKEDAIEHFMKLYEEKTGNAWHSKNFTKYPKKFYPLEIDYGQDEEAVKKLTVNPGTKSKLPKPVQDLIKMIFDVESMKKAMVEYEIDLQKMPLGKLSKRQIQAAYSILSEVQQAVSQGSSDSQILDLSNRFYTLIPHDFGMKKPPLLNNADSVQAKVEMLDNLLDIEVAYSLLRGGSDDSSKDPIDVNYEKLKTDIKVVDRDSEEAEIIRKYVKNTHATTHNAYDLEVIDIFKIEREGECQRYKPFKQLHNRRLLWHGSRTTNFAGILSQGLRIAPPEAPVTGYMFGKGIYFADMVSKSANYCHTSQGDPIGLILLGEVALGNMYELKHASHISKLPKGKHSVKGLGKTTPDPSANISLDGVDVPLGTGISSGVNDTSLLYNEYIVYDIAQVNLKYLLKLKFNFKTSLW
pIC50: −log10 of the molar value. Counter-ions that a name gives are not always drawn.
ASSAY_METRIC: pIC50

CN(C)Cc1cc2c([nH]c(=O)c3ccc(Cl)cc32)s1 [Example 6, hydrochloride] : 5.65

[1] COc1cccc2c(=O)[nH]c3sc(CN(C)C)cc3c12.Cl [Example 1, hydrochloride]
[2] CN(C)Cc1cc2c([nH]c(=O)c3cc(F)cc(O)c32)s1 [Example 7, hydrochloride]
[3] O=c1[nH]c2sc(CN3CCCCC3)cc2c2c(O)cccc12 [Example 11]
[4] COc1ccc2c(=O)[nH]c3sc(CN(C)C)cc3c2c1 [Example 8, hydrochloride]
Rank descending by pIC50. // list labels; follow requested order 3, 2, 1, 4

* * *

Experiment: Microsomal stability, C57 mouse liver microsomes
Format: in vitro ADME
Settings: 0.5 mg/mL protein, Phase I plus Phase II cofactors, read-out: Microsomal Stability C57 Mouse Phase I & II t1/2
Method: The assay protocol was described in Summerfield S G, Read K, Begley D J, Obradovic T, Hidalgo I J, Coggon S, Lewis A V, Porter R A, Jeffrey P 2007. […] The samples were incubated with liver microsomes from rat, mouse, and human at 1 μM at microsomal protein concentration of 0.5 mg/mL at 37° C. in the presence of NADPH cofactor. […] The solution was centrifuged and the supernatants were analyzed using LC-MS-MS. […]
# half-life at 1 μM per record follows

Determine from records and report half-life at 1 μM for O=c1[nH]c2sc(CN3CCCC3)cc2c2c(O)cccc12 > 30 min

Determine from records and report half-life at 1 μM for O=c1[nH]c2sc(CN3CCOCC3)cc2c2c(O)cccc12 > 30 min

Determine from records and report half-life at 1 μM for O=c1[nH]c2sc(CN3CCCCC3)cc2c2c(O)cccc12 > 30 min

* * *

test: Microsomal stability, C57 mouse liver microsomes; type: in vitro ADME; settings: 0.5 mg/mL protein, NADPH, Phase I, read-out: Microsomal Stability C57 Mouse Phase I t1/2
# half-life at 1 μM per record follows

# annotated cases, reported half-life at 1 μM shown
O=c1[nH]c2sc(CN3CCCC3)cc2c2c(O)cccc12 : > 30 min
O=c1[nH]c2sc(CN3CCOCC3)cc2c2c(O)cccc12 : > 30 min

Consider now this further compound.
Determine from records and report half-life at 1 μM for O=c1[nH]c2sc(CN3CCSC3)cc2c2c(O)cccc12 4 min
